details: buffer; pH 7.4; 200.0 µM
measured-parameter: solubility kinetic

Inquiry: Which measured solubility kinetic value corresponds to CC(SCc1ccccc1)C(=O)Nc1ccc(F)cc1 (stereo unspecified) ?
Reply text: > 43.4 µg/mL

Inquiry: What about `COc1ccc(Cn2cc([N+](=O)[O-])nc2C)cc1[N+](=O)[O-]` ?
Reply text: > 43.8 µg/mL

----------
details: buffer; pH 7.4; 200.0 µM
Listing of entries alongside the reported solubility kinetic.

N#C/C(=C/c1ccncc1)c1nc2ccccc2c(=O)[nH]1	> 41.1 µg/mL
CC(=O)Nc1ccc(S(=O)(=O)NCCC(=O)N2CCN(c3ccccc3Cl)CC2)cc1	> 69.7 µg/mL

Inquiry: Which measured solubility kinetic value corresponds to `Cc1cc(C)c(NC(=O)CCCN2CCCC2)c(C)c1` ?
Reply text: > 41.2 µg/mL

Inquiry: What about `O=C(O)C1CCN(C(=O)c2csc(-c3ccc4c(c3)CCO4)n2)CC1` ?
Reply text: > 53.8 µg/mL

Inquiry: What about `Oc1ccc(/C=N/N2CCCCC2)cc1O` ?
Reply text: > 33 µg/mL

Inquiry: What about `CC(=O)c1sc(NC(=O)c2ccccc2)nc1-c1ccccc1` ?
Reply text: < 0.3 µg/mL

Inquiry: What about O=C(O)c1cccc(N2C(=O)CSC2c2ccccc2)c1 (centres undefined) ?
Reply text: > 44.9 µg/mL

Inquiry: What about `O=C1/C(=C/c2ccc(F)cc2)Oc2cc(OC(=O)N3CCOCC3)ccc21` ?
Reply text: < 0.8 µg/mL

Inquiry: What about `O=C(O)/C=C/C(=O)N1CCc2ccccc21` ?
Reply text: > 32.6 µg/mL

Inquiry: What about `NC(=O)COC(=O)c1ccc2c(c1)C(=O)N(Cc1ccco1)C2=O` ?
Reply text: > 49.2 µg/mL

Inquiry: What about `O=C(O)CSc1nc2ccccc2n1-c1ccccc1` ?
Reply text: > 42.6 µg/mL

Inquiry: What about `O=C(Nc1cccnc1)c1ccc([N+](=O)[O-])o1` ?
Reply text: > 35 µg/mL

Inquiry: What about `N/C(=N\S(=O)(=O)c1ccc(Cl)cc1)N1CCOCC1` ?
Reply text: > 45.6 µg/mL

Inquiry: What about `CCCc1cnc(N2CCN(C(=O)c3ccc(F)cc3)CC2)nc1` ?
Reply text: > 49.3 µg/mL
